- System: A2780 human ovarian cancer cells
- procedure_details: In vitro cell proliferation assay (CellTiter-Glo)
- Format: cell-based
- condition_context: 72 h, read-out: IC50 value in A2780 human ovarian cancer cells
pIC50: −log10 of the molar value. Structures can show the parent of a compound that is named as a salt.
The reader will find reported pIC50 values listed item by item below.

CC[C@@]1(OC(=O)CNC(=O)[C@H](CC(C)C)NC(=O)[C@@H](N)Cc2ccccc2)C(=O)OCc2c1cc1n(c2=O)Cc2cc3c(Br)cccc3nc2-1; > 8.00

Proceed to the following item.
-- ask Respond only with pIC50 recorded for CC[C@@]1(OC(=O)CN)C(=O)OCc2c1cc1n(c2=O)Cc2cc3c(Br)cccc3nc2-1 [Comp. 1, hydrochloride]
-- reply > 8.00
